pKd values, listed per item
measuredOn: T1, Human insulin receptor (HIR), purified from transfected cells after solubilization with Triton X-100 (human, UniProt P06213 28-1382, limits assumed)
T1 construct: Detergent-solubilised receptor
procedureText: competition with 125I-insulin for solubilised HIR, PEG precipitation; Kd calculated from the competition curve
pKd: −log10 of the molar value. No end group written: not given here.
readoutType: pKd

GSLDESFYDWFERQL (Synthetic truncated RP9 monomer peptide) [S395]
7.04
GSLDESFYDWFERQ (Synthetic truncated RP9 monomer peptide) [S394]
7.09
ESFYDWFERQLGK (not fully specified (residue 13, C-terminus); also: dimer, two chains joined C-terminus to C-terminus through linker 23) [S415]
7.00
ESFYDWFERQ (Synthetic truncated RP9 monomer peptide) [S400]
6.20
GSLDESFYDWFERQLGKK (Synthetic RP9 monomer peptide; also called RP9; S371 (RP9)) [S371]
6.20
ESFYDWFERQL (Synthetic truncated RP9 monomer peptide) [S399]
7.04
